Molecular target: furin, P09958;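 note: purified furin at 1:10 enzyme:substrate in 50 mM HEPES pH 7.5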
Sequence (P09958 whole entry): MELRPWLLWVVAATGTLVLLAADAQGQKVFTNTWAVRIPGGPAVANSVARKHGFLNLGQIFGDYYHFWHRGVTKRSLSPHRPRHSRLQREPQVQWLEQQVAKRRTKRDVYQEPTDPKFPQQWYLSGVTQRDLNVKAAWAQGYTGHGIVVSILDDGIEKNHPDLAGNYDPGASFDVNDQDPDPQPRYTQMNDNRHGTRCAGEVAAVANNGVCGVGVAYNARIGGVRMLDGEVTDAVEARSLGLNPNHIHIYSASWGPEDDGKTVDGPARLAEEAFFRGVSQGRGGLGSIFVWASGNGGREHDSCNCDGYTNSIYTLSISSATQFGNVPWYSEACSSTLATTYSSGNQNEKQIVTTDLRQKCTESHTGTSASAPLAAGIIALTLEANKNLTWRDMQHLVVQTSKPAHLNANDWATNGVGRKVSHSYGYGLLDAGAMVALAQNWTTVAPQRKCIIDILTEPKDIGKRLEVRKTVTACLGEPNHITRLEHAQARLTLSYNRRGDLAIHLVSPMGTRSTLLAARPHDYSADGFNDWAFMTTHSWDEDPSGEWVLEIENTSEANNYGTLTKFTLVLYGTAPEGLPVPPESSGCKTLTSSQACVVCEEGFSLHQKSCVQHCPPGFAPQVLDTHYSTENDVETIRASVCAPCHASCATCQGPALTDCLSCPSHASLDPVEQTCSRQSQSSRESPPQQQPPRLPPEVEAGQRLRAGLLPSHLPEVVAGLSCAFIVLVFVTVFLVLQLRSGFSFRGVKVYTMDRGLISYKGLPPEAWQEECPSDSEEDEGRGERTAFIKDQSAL
Assay: furin cleavage Z-score vs untreated control; higher = more cleavage, active = 3.5 or more, inactive = 1 or less, 8 variable residues between constant flanks
Details: 15 min
This is one part of the list. The hit rate among all sequences tested is not known here.
Outcome codes: y (active), n (inactive)

residue_string="CARKYRSHHDAGNASASA [FS-2428]" classification=y
residue_string="CADSTVTESDAGNASASA [HC1483]" classification=n
residue_string="CARKARFGSEAGNASASA [FS-2958]" classification=n
residue_string="CARRFRSVPRAGNASASA [FS-2369]" classification=n
